Test system: MDA-MB-231 (breast cancer)
Test: MTT antiproliferative assay, MDA-MB-231
Type: cell-based
Conditions: Homo sapiens, MDA-MB-231, 10 μM, 48 or 72 h, read-out: inhibition of cell growth, MDA-MB-231
Recorded measurements of inhibition at 10 µM, one per entry

| mol-smiles | inhibition at 10 µM |
| --- | --- |
| CNC(=O)[C@]1(C)CC[C@]2(C)CC[C@]3(C)C4=CC=C5C(=CC(=O)[C@H](O)[C@@]5(C)OC)[C@]4(C)CC[C@@]3(C)[C@@H]2C1 | ≥ 80% |
| CO[C@@]1(C)C2=CC=C3[C@@](C)(CC[C@@]4(C)[C@@H]5C[C@](C)(C=O)CC[C@]5(C)CC[C@]34C)C2=CC(=O)[C@@H]1O | 50 to 80% |
| CO[C@@]1(C)C2=CC=C3[C@@](C)(CC[C@@]4(C)[C@@H]5C[C@](C)(C(N)=O)CC[C@]5(C)CC[C@]34C)C2=CC(=O)/C1=C\C#N | ≥ 80% |
| CO[C@@]1(C)C2=CC=C3[C@@](C)(CC[C@@]4(C)[C@@H]5C[C@](C)(C(=O)O)CC[C@]5(C)CC[C@]34C)C2=CC(=O)[C@@H]1O | ≥ 80% |
| CO[C@@]1(C)C2=CC=C3[C@@](C)(CC[C@@]4(C)[C@@H]5C[C@](C)(C(=O)O)CC[C@]5(C)CC[C@]34C)C2=CC(=NO)[C@@H]1O | < 30% |

Kindly consider the entry below.
What the record says about CO[C@]1(C)C(=O)C(=O)C=C2C1=CC=C1[C@@]2(C)CC[C@@]2(C)[C@@H]3C[C@](C)(CO)CC[C@]3(C)CC[C@]12C : inhibition at 10 µM is < 30%

----------
// values below are reported inhibition at 10 µM
System: MDA-MB-231 (breast cancer)
Test: MTT antiproliferative assay, MDA-MB-231
Format: cell-based
Settings: Homo sapiens, MDA-MB-231, 10 μM, 48 or 72 h, read-out: inhibition of cell growth, MDA-MB-231

| compound | result |
| --- | --- |
| CO[C@]1(C)C(=O)C(=O)C=C2C1=CC=C1[C@@]2(C)CC[C@@]2(C)[C@@H]3C[C@](C)(C(=O)NCCO)CC[C@]3(C)CC[C@]12C [Compound A44] | ≥ 80% |

In plain terms, CO[C@]1(C)C(=O)C(=O)C=C2C1=CC=C1[C@@]2(C)CC[C@@]2(C)[C@@H]3C[C@](C)(C(N)=O)CC[C@]3(C)CC[C@]12C [Compound A9] has a documented inhibition at 10 µM of ≥ 80%

Reported inhibition at 10 µM of CC12OCCOC1(O)C(=O)C=C1C2=CC=C2[C@@]1(C)CC[C@@]1(C)[C@@H]3C[C@](C)(C(=O)O)CC[C@]3(C)CC[C@]21C (stereo partly drawn) [Compound A43] : < 30%

----------
Tested on: MDA-MB-231 (breast cancer)
Test: MTT antiproliferative assay, MDA-MB-231
Format: cell-based
Conditions: Homo sapiens, MDA-MB-231, 10 μM, 48 or 72 h, read-out: inhibition of cell growth, MDA-MB-231
Measured inhibition at 10 µM of individual entries

| compound | inhibition at 10 µM |
| --- | --- |
| CO[C@]1(C)C(=O)C(=O)C=C2C1=CC=C1[C@@]2(C)CC[C@@]2(C)[C@@H]3C[C@](C)(C(=O)On4nnc5ccccc54)CC[C@]3(C)CC[C@]12C [Compound A6] | 50 to 80% |

In plain terms, CO[C@]1(C)C(=O)C2(C=C3C1=CC=C1[C@@]3(C)CC[C@@]3(C)[C@@H]4C[C@](C)(C(=O)O)CC[C@]4(C)CC[C@]13C)OCCO2 [Compound A54] has a documented inhibition at 10 µM of < 30%

According to the records, this compound CO[C@@]1(C)C2=CC=C3[C@@](C)(CC[C@@]4(C)[C@@H]5C[C@](C)(C(=O)O)CC[C@]5(C)CC[C@]34C)C2=CC(=O)C1=NNC(=O)c1ccncc1 [Compound A52] displays inhibition at 10 µM of < 30%

Lab note: measured inhibition at 10 µM of CNC(=O)[C@]1(C)CC[C@]2(C)CC[C@]3(C)C4=CC=C5C(=CC(=O)C(=O)[C@@]5(C)OC)[C@]4(C)CC[C@@]3(C)[C@@H]2C1 [Compound A7] was ≥ 80%

compound CO[C@@]1(C)C2=CC=C3[C@@](C)(CC[C@@]4(C)[C@@H]5C[C@](C)(C#N)CC[C@]5(C)CC[C@]34C)C2=CC(=O)[C@@H]1O [Compound A62] , inhibition at 10 µM observed: 30 to 50%

----------
System: MDA-MB-231 (breast cancer)
Experiment: MTT antiproliferative assay, MDA-MB-231
Format: cell-based
Conditions: Homo sapiens, MDA-MB-231, 10 μM, 48 or 72 h, read-out: inhibition of cell growth, MDA-MB-231
recorded-metric: inhibition at 10 µM

| compound | result |
| --- | --- |
| CCNC(=O)[C@]1(C)CC[C@]2(C)CC[C@]3(C)C4=CC=C5C(=CC(=O)C(=O)[C@@]5(C)OC)[C@]4(C)CC[C@@]3(C)[C@@H]2C1 [Compound A10] | ≥ 80% |
| CO[C@@]1(C)C2=CC=C3[C@@](C)(CC[C@@]4(C)[C@@H]5C[C@](C)(C(=O)N6CCOCC6)CC[C@]5(C)CC[C@]34C)C2=CC(=O)[C@@H]1O [Compound A56] | 50 to 80% |
| CO[C@@]1(C)C2=CC=C3[C@@](C)(CC[C@@]4(C)[C@@H]5C[C@](C)(C(=O)O)CC[C@]5(C)CC[C@]34C)C2=CC(=O)/C1=C/C#N [Compound A31] | ≥ 80% |
| CCCC(=O)O[C@H]1C(=O)C=C2C(=CC=C3[C@@]2(C)CC[C@@]2(C)[C@@H]4C[C@](C)(C(=O)NC)CC[C@]4(C)CC[C@]32C)[C@]1(C)OC [Compound A23] | ≥ 80% |

Kindly review the next compound as well.
Item CO[C@@]1(C)C2=CC=C3[C@@](C)(CC[C@@]4(C)[C@@H]5C[C@](C)(C(N)=O)CC[C@]5(C)CC[C@]34C)C2=CC(=O)[C@@H]1O [Compound A55] was tested on MDA-MB-231 (breast cancer); the reported inhibition at 10 µM is 50 to 80%

----------
Let's look at some molecules and their measured inhibition at 10 µM.
Test system: MDA-MB-231 (breast cancer)
Assay: MTT antiproliferative assay, MDA-MB-231
Format: cell-based
Conditions: Homo sapiens, MDA-MB-231, 10 μM, 48 or 72 h, read-out: inhibition of cell growth, MDA-MB-231

| molecule | inhibition at 10 µM |
| --- | --- |
| COC(=O)[C@]1(C)CC[C@]2(C)CC[C@]3(C)C4=CC=C5C(=CC(=O)/C(=C\C#N)C5(C)O)[C@]4(C)CC[C@@]3(C)[C@@H]2C1 (some centres unmarked) | ≥ 80% |

Recorded inhibition at 10 µM (molecule CO[C@]1(C)C(=O)C(=O)C=C2C1=CC=C1[C@@]2(C)CC[C@@]2(C)[C@@H]3C[C@](C)(C(=O)OCc4ccccc4)CC[C@]3(C)CC[C@]12C ): ≥ 80%

CCCNC(=O)[C@]1(C)CC[C@]2(C)CC[C@]3(C)C4=CC=C5C(=CC(=O)C(=O)[C@@]5(C)OC)[C@]4(C)CC[C@@]3(C)[C@@H]2C1 has a reported inhibition at 10 µM of 50 to 80%

Just so you know, measured inhibition at 10 µM for CO[C@]1(C)C(=O)C(=O)C=C2C1=CC=C1[C@@]2(C)CC[C@@]2(C)[C@@H]3C[C@](C)(C(=O)NO)CC[C@]3(C)CC[C@]12C came out at ≥ 80%

// field: inhibition at 10 µM; key: COC(=O)[C@]1(C)CC[C@]2(C)CC[C@]3(C)C4=CC=C5C(=CC(=O)C(=O)C5(C)c5c[nH]c6ccccc56)[C@]4(C)CC[C@@]3(C)[C@@H]2C1 (some centres unmarked) ; value = 30 to 50%

----------
Test system: HepG2 (liver cancer)
Assay: MTT antiproliferative assay, HepG2
Format: cell-based
Conditions: Homo sapiens, HepG2, 10 μM, 48 or 72 h, read-out: inhibition of cell growth, HepG2
recorded-metric: inhibition at 10 µM

Use these answered entries as a reference point.
| molecule | result |
| --- | --- |
| CO[C@@]1(C)C2=CC=C3[C@@](C)(CC[C@@]4(C)[C@@H]5C[C@](C)(C(=O)NO)CC[C@]5(C)CC[C@]34C)C2=CC2(O)OCCN=C21 (some centres unmarked) | ≥ 80% |
| CO[C@@]1(C)C2=CC=C3[C@@](C)(CC[C@@]4(C)[C@@H]5C[C@](C)(C#N)CC[C@]5(C)CC[C@]34C)C2=CC(=O)[C@@H]1O | 30 to 50% |
| CO[C@]1(C)C(=O)C(=O)C=C2C1=CC=C1[C@@]2(C)CC[C@@]2(C)[C@@H]3C[C@](C)(C(=O)N(C)C)CC[C@]3(C)CC[C@]12C | ≥ 80% |
| COC(=O)[C@]1(C)CC[C@]2(C)CC[C@]3(C)C4=CC=C5C(=CC(=O)C(=O)C5(C)c5c[nH]c6ccccc56)[C@]4(C)CC[C@@]3(C)[C@@H]2C1 (some centres unmarked) | 50 to 80% |
| CO[C@]1(C)C(=O)C(=O)C=C2C1=CC=C1[C@@]2(C)CC[C@@]2(C)[C@@H]3C[C@](C)(C(=O)On4nnc5ccccc54)CC[C@]3(C)CC[C@]12C | ≥ 80% |

For this molecule ( CO[C@@]1(C)C2=CC=C3[C@@](C)(CC[C@@]4(C)[C@@H]5C[C@](C)(C(=O)NO)CC[C@]5(C)CC[C@]34C)C2=CC(=O)[C@@H]1O ), measured inhibition at 10 µM is ≥ 80%

Entry COC(=O)[C@]1(C)CC[C@]2(C)CC[C@]3(C)C4=CC=C5C(=C/C(=C\C#N)C(=O)C5(C)O)[C@]4(C)CC[C@@]3(C)[C@@H]2C1 (some centres unmarked) — recorded inhibition at 10 µM = 30 to 50%

Recorded inhibition at 10 µM (molecule CO[C@]1(C)C(=O)C(=O)C=C2C1=CC=C1[C@@]2(C)CC[C@@]2(C)[C@@H]3C[C@](C)(C(=O)OCc4ccccc4)CC[C@]3(C)CC[C@]12C ): ≥ 80%
